- measurement target: reverse transcriptase derived from Moloney-Murine Leukemia Virus (M-MLV) (Moloney murine leukemia virus)
- Construct: reverse transcriptase derived from Moloney-Murine Leukemia Virus; purchased Pharmacia K. K
- test summary: Inhibiting activity against reverse transcriptase derived from M-MLV
- Type: biochemical
- stated conditions: 1 μM in the reaction mixture; read-out: Inhibition rate (reverse transcriptase derived from M-MLV)
Measured inhibition at 1 µM, listed per entry for reference.
outcome measure: inhibition at 1 µM (%)

[[record]]
structure = "O=C1NN(c2ccccc2)C(=O)C1=Cc1cc(-c2ccccc2)c(O)c(-c2ccccc2)c1"
readout_units = "%"
assay_value = 75

[[record]]
structure = "O=C1NN(c2ccccc2)C(=O)C1=Cc1cc(O)c(O)c(Cc2ccccc2)c1"
readout_units = "%"
assay_value = 91

[[record]]
structure = "O=C1NC(=S)SC1=Cc1cc(-c2ccccc2)c(O)c(-c2ccccc2)c1"
readout_units = "%"
assay_value = 96

[[record]]
structure = "CCCCOc1cc(C=C2SC(=S)NC2=O)cc(CSc2ccccc2)c1O"
readout_units = "%"
assay_value = 73

[[record]]
structure = "O=C1N=C(NCc2ccco2)SC1=Cc1cc(O)c(O)c(CSc2ccccc2)c1"
readout_units = "%"
assay_value = 73

[[record]]
structure = "O=C1NC(=S)SC1=Cc1cc(CSc2ccccc2)c(O)c(OCc2ccccc2)c1"
readout_units = "%"
assay_value = 98

[[record]]
structure = "O=C1NC(=S)SC1=Cc1cc(Cc2ccccc2)c(O)c(Cc2ccccc2)c1"
readout_units = "%"
assay_value = 95

[[record]]
structure = "O=C1Nc2ccccc2C1=Cc1cc(O)c(O)c(CSc2ccccc2)c1"
readout_units = "%"
assay_value = 94

[[record]]
structure = "O=C1NC(=S)SC1=Cc1cc(O)c(O)c(CSc2ccccc2)c1"
readout_units = "%"
assay_value = 98


###

- measurement target: reverse transcriptase derived from Moloney-Murine Leukemia Virus (M-MLV) (Moloney murine leukemia virus)
- Construct: reverse transcriptase derived from Moloney-Murine Leukemia Virus; purchased Pharmacia K. K
- test summary: Inhibiting activity against reverse transcriptase derived from M-MLV
- Assay type: biochemical
- stated conditions: 10 μM in the reaction mixture; read-out: Inhibition rate (reverse transcriptase derived from M-MLV)
outcome measure: inhibition at 10 µM (%)

[[record]]
structure = "O=C1N=C(NCc2cccs2)SC1=Cc1cc(CSc2ccccc2)c(O)c(OCc2ccccc2)c1"
outcome_measure = "inhibition at 10 µM"
readout_units = "%"
assay_value = 61

[[record]]
structure = "CCCCOc1cc(C=C2SC(=S)NC2=O)cc(Cc2ccccc2)c1O"
outcome_measure = "inhibition at 10 µM"
readout_units = "%"
assay_value = 61

[[record]]
structure = "N#CC(=Cc1cc(-c2ccccc2)c(O)c(-c2ccccc2)c1)C(N)=O"
outcome_measure = "inhibition at 10 µM"
readout_units = "%"
assay_value = 59


###

- measurement target: epidermal growth factor receptor-tyrosine kinase complex (Homo sapiens, UniProt P00533)
- Construct: The membrane preparation was employed in the following measurement without solubilization; endogenous in cells; host or cells: A-431 (ATCC CRL1555), membrane preparation, not solubilized
- Sequence (P00533 25-1210, one chain of several): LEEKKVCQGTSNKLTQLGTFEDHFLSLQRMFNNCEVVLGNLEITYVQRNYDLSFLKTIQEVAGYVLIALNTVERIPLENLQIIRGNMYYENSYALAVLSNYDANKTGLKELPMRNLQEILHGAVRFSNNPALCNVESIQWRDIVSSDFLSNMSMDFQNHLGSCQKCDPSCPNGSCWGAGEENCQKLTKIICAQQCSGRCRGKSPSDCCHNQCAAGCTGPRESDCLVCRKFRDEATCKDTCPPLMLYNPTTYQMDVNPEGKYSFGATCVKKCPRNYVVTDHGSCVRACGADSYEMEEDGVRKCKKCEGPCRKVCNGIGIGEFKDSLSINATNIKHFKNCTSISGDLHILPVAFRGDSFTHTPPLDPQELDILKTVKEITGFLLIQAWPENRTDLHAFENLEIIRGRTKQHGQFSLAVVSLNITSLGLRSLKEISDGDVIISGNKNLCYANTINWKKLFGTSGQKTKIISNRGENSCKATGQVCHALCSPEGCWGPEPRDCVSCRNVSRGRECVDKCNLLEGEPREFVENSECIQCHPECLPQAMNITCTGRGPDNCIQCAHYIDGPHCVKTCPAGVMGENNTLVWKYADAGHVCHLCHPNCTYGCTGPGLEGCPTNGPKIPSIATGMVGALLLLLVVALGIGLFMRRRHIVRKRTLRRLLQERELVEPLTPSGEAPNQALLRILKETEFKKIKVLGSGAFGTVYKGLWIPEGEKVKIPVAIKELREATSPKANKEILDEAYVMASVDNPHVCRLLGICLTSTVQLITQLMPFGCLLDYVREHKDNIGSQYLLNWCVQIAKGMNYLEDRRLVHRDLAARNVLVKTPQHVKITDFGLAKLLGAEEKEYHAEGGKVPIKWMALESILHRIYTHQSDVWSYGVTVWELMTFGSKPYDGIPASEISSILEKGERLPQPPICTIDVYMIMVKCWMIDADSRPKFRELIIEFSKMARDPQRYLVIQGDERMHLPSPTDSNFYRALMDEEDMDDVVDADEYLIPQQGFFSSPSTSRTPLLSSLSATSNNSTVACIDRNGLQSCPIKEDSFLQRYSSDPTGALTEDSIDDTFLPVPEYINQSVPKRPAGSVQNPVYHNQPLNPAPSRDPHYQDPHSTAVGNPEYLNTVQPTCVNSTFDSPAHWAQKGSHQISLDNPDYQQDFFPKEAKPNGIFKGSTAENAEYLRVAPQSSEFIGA
- test summary: Tyrosine kinase inhibiting activity (A-431 membrane preparation, EGF-stimulated)
- Type: biochemical
- stated conditions: 1 μM in the reaction mixture; read-out: Tyrosine kinase inhibition rate
# cutoff 80% applies to inhibition at 1 µM; >= gives t, < gives f

[[record]]
compound = "O=C1NC(=S)SC1=Cc1cc(Cc2ccccc2)c(O)c(Cc2ccccc2)c1 [Compound 2]"
qualitative_label = "f"

[[record]]
compound = "CC(C)c1cc(C=C2SC(NCc3ccc(N)cc3)=NC2=O)cc(C(C)C)c1O [Compound 42]"
qualitative_label = "t"

[[record]]
compound = "N#CC(=Cc1cc(Cc2ccccc2)c(O)c(Cc2ccccc2)c1)C(N)=O [Compound 16]"
qualitative_label = "t"

[[record]]
compound = "CC(C)c1cc(C=C2SC(Nc3ccccc3)=NC2=O)cc(C(C)C)c1O [Compound 32]"
qualitative_label = "f"

[[record]]
compound = "CCCCOc1cc(C=C2SC(=S)NC2=O)cc(Cc2ccccc2)c1O [Compound 10]"
qualitative_label = "f"

[[record]]
compound = "CC(C)c1cc(C=C2SC(NCCc3ccccc3)=NC2=O)cc(C(C)C)c1O [Compound 34]"
qualitative_label = "f"

